This section presents compounds with their documented normalized growth values.
EXPERIMENT NOTES: chemical genetic growth profiling, strain panel (AID 1159580);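 further: tested at 20 µM; growth read once vehicle control cultures reached saturation at 30 °C; 1 = growth at the plate median or of vehicle wells; lower values mean less growth of the strain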
STATED CONDITIONS: S. cerevisiae deletion strains, growth OD, locus YLR102C, strain apc9, hits give low values
Screen size: about 5,500 compounds; about 2,000 (36%) were called active. Roughly 18% stayed inconclusive and do not appear here. The list shows a part of the results.

- COMPOUND: "CCCCCC(O)C1C(=O)OC(C)C(O)/C=C/C=C/C=C/C=C/C=C(\\C)C(O)CC(O)CC(O)CC(O)CC(O)CC(O)CC1O (stereo unspecified)"
  normalized growth: "1.02 (inactive)"
- COMPOUND: "NCCCCN"
  normalized growth: "1 (inactive)"
- COMPOUND: "COc1ccc(-c2cc(=O)c3c(O)cc(O)cc3o2)cc1O"
  normalized growth: "0.995 (inactive)"
- COMPOUND: "Cc1c(C(N)=O)cc([N+](=O)[O-])cc1[N+](=O)[O-]"
  normalized growth: "0.97 (inactive)"
- COMPOUND: "CSCCC(N)C(=O)NC(CC(C)C)C(=O)NC(Cc1ccccc1)C(=O)O (stereo unspecified)"
  normalized growth: "0.994 (inactive)"
- COMPOUND: "NC(=O)c1cc([N+](=O)[O-])cc([N+](=O)[O-])c1"
  normalized growth: "1 (inactive)"
- COMPOUND: "C[C@@H](CO)NC(=O)C1C=C2c3cccc4[nH]cc(c34)C[C@H]2N(C)C1 (stereo partly specified)"
  normalized growth: "0.993 (inactive)"
- COMPOUND: "CC1(C)[C@@H]2CC[C@@]1(C)C(=O)C2"
  normalized growth: "0.992 (inactive)"
- COMPOUND: "CC(=O)N1CCCC1C(=O)O (stereo unspecified)"
  normalized growth: "1.02 (inactive)"
- COMPOUND: "CC1(C)C(O)CC(=O)C2(C)C1CC(O)C1(C)C2CCC2(C)C(c3ccoc3)OC(=O)C3OC321 (stereo unspecified)"
  normalized growth: "1.02 (inactive)"
- COMPOUND: "CC(C)(C)NCC(O)COc1cccc2c1C[C@H](O)[C@H](O)C2 (stereo partly specified)"
  normalized growth: "0.992 (inactive)"

----------
This section presents molecules with their documented normalized growth values.
EXPERIMENT NOTES: chemical genetic growth profiling, strain panel (AID 1159580);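 further: tested at 20 µM; growth read once vehicle control cultures reached saturation at 30 °C; 1 = growth at the plate median or of vehicle wells; lower values mean less growth of the strain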
STATED CONDITIONS: S. cerevisiae deletion strains, growth OD, locus YPR135W, strain CTF4, hits give low values
The campaign covered roughly 5,500 compounds. About 2,000 (36%) were called active. About 18% were inconclusive and are not listed. The list shows a part of the results.

- MOLECULE: "O=[N+]([O-])c1cnc2ccccn12"
  normalized growth: 1.11
- MOLECULE: "CC(C)(C)C1=CC(=O)C=C(C(C)(C)C)C1=O"
  normalized growth: 1.07
- MOLECULE: "N#CCS(=O)(=O)c1cccs1"
  normalized growth: 0.885
- MOLECULE: "CCOC(=O)c1cnc2n(c1=O)CCS2"
  normalized growth: 1.12
- MOLECULE: "Clc1ccc2ocnc2c1"
  normalized growth: 1.08
- MOLECULE: "OCC(O)Cn1c2ccccc2c2ccccc21 (stereo not given)"
  normalized growth: 1.02
- MOLECULE: "CCn1nc(C)cc1C(=O)O"
  normalized growth: 0.994
- MOLECULE: "CCCCCCCCCCCCSc1nnc(N)s1"
  normalized growth: 1.21
- MOLECULE: "Cc1ccc(OS(=O)(=O)c2ccc(Cl)cc2)c([N+](=O)[O-])n1"
  normalized growth: 0.877
- MOLECULE: "COC(CNc1cccc(Cl)c1C#N)OC"
  normalized growth: 0.957
- MOLECULE: "CN(C)/C=C1\\CSc2ccc(F)cc2C1=O"
  normalized growth: 0.303
- MOLECULE: "N#Cc1c(Cl)cccc1N1CCC(C(=O)NC(=O)Nc2ccc(Cl)cc2)CC1"
  normalized growth: 1.04
- MOLECULE: "COc1ccc([N+](=O)[O-])c(OC)c1C(N)=O"
  normalized growth: 1.12
- MOLECULE: "COc1ccc(OC)c(CNC(=O)Cc2cccs2)c1"
  normalized growth: 1.06
- MOLECULE: "COC(=O)Cc1cc(OC)c(OC)cc1[N+](=O)[O-]"
  normalized growth: 1.03
- MOLECULE: "O=C(Nc1ccccc1)N1CCN(C(c2ccccc2)c2ccccc2)CC1"
  normalized growth: 0.902
- MOLECULE: "CC(C)(C)OC(=O)NCc1n[nH]c(=S)n1-c1ccccc1"
  normalized growth: 1.12
- MOLECULE: "Cc1onc(-c2ccccc2)c1C(=O)On1c(-c2ccccc2)nc2ccccc2c1=O"
  normalized growth: 0.368
- MOLECULE: "Cn1c(SCc2ccccc2)nnc1-c1ccc2ncccc2c1"
  normalized growth: 1.08
- MOLECULE: "COc1ccccc1NC(=S)NCCC(=O)O"
  normalized growth: 0.984
- MOLECULE: "NC(=NS(=O)(=O)c1cc(Cl)c(Oc2ccc([N+](=O)[O-])cc2Cl)c(Cl)c1)c1cccnc1"
  normalized growth: 0.96
- MOLECULE: "CC(=O)c1ccccc1OC(=O)c1c(-c2c(Cl)cccc2Cl)noc1C"
  normalized growth: 1.12
- MOLECULE: "CN1c2ccccc2C(=O)/C(=N/Nc2ccccc2F)S1(=O)=O"
  normalized growth: 1.06
- MOLECULE: "Cn1c2c(c3ccccc31)/C(=N\\OC(=O)c1ccc(Cl)cc1Cl)CCC2"
  normalized growth: 1.11
- MOLECULE: "COc1cc([N+](=O)[O-])c(OC)cc1SCC(=O)NNC(=O)c1cc(OC)c(OC)c(OC)c1"
  normalized growth: 0.904

These measurements were taken from PubChem BioAssay AID1159580.
